# experiment: Determination of drug solubility in aqueous and organic solvent
# Format: physicochemical
# runConditions: organic solvent or mixture, thermodynamic from solid; Table 3B; DCM; read-out: Solubility DCM
measuredMetric: solubility

CC/C=C\C/C=C\C/C=C\C/C=C\C/C=C\C/C=C\CCC(=O)NS(=O)(=O)c1cc2c(s1)S(=O)(=O)[C@@H](C)C[C@@H]2NCC has a reported solubility of > 50 mg/mL

* * *

Listed next: entries and their corresponding solubility.
# experiment: Determination of drug solubility in aqueous and organic solvent
# Assay type: physicochemical
# runConditions: thermodynamic from solid; Table 3B; water; drug added to 50 mg/mL; read-out: Solubility Water

Check out these entries, answers already filled in.
- CC(C)(C)NC[C@@H](COc1nsnc1N1CCOCC1)OC(=O)CCC(=O)O[C@@H](CNC(C)(C)C)COc1nsnc1N1CCOCC1.O=C(O)/C=C\C(=O)O [Compound 76-4, Timolol-succinic acid-Timolol-maleate]: > 6250 µg/mL
- CCCCCCCCCCCCCCCCCC(=O)O[C@@H](C)C(=O)O[C@H](COc1nsnc1N1CCOCC1)CN(C(C)=O)C(C)(C)C: < 1000 µg/mL
- CC(C)(C)NC[C@@H](COc1nsnc1N1CCOCC1)OC(=O)CCCC(=O)O[C@@H](CNC(C)(C)C)COc1nsnc1N1CCOCC1.O=C(O)/C=C\C(=O)O [Compound 77-1, Timolol-glutaric acid-Timolol-maleate]: < 1000 µg/mL
- CCCCC/C=C\C/C=C\CCCCCCCC(=O)O[C@@H](CNC(C)(C)C)COc1nsnc1N1CCOCC1.Cl [Compound 71-1, Timolol-O-Linoleic Acid-HCl]: > 25000 µg/mL

Okay, now this molecule:
CCOC(=O)CCC(=O)O[C@H](COc1nsnc1N1CCOCC1)CN(C(=O)[C@H](C)OC(=O)[C@H](C)OC(C)=O)C(C)(C)C has a reported solubility of < 1000 µg/mL

* * *

# experiment: Determination of drug solubility in aqueous and organic solvent
# Assay type: physicochemical
# runConditions: thermodynamic from solid; Table 3B; water; drug added to 50 mg/mL; read-out: Solubility Water
measuredMetric: solubility

* COc1cccc(CN(CCOC(=O)[C@H](C)OC(=O)[C@H](C)OC(=O)[C@H](C)OC(=O)[C@H](C)OC(C)=O)C(=O)Nc2ccc(-c3cnn(C(=O)[C@H](C)OC(=O)[C@H](C)OC(=O)[C@H](C)OC(=O)[C@H](C)OC(C)=O)c3)cc2)c1 [Compound 113-1, SR5834-bis-acetyl PLA(n=4)] | < 1 mg/mL

Okay, now this molecule:
CC(C)(C)NC[C@@H](COc1nsnc1N1CCOCC1)OC(=O)/C=C/C(=O)O[C@@H](CNC(C)(C)C)COc1nsnc1N1CCOCC1.O=C(O)/C=C\C(=O)O.O=C(O)/C=C\C(=O)O [Compound 78-1, Timolol-fumurate-Timolol-maleate] has a reported solubility of < 1 mg/mL

* * *

Listed next: entries and their corresponding solubility.
# experiment: Determination of drug solubility in aqueous and organic solvent
# Format: physicochemical
# runConditions: organic solvent or mixture, thermodynamic from solid; Table 3A; DMSO; read-out: Solubility DMSO
Where a name gives a salt, the structure may show the parent alone.

Check out these entries, answers already filled in.
• CCCCCCCCCCCCCCCCCC(=O)O[C@@H](C)C(=O)O[C@@H](C)C(=O)O[C@@H](C)C(=O)O[C@@H](C)C(=O)O[C@@H](C)C(=O)O[C@@H](C)C(=O)O[C@@H](CNC(C)(C)C)COc1nsnc1N1CCOCC1 [Compound 42-2, maleate] = > 50 mg/mL
• CC(=O)O[C@@H](C)C(=O)O[C@@H](C)C(=O)O[C@@H](C)C(=O)O[C@@H](C)C(=O)N1CCN(C(=O)[C@H](C)OC(=O)[C@H](C)OC(=O)[C@H](C)OC(=O)[C@H](C)OC(C)=O)C1=Nc1ccc2nccnc2c1Br = 100 mg/mL
• CC(C)(C)NC[C@@H](COc1nsnc1N1CCOCC1)OC(=O)OC(C)(C)C = > 50 mg/mL
• CC(=O)O[C@@H](C)C(=O)O[C@@H](C)C(=O)N1CCN=C1Nc1ccc2nccnc2c1Br = > 50 mg/mL
• CC(=O)N(C[C@@H](COc1nsnc1N1CCOCC1)OC(=O)OC(C)(C)C)C(C)(C)C [Compound 37-2, Timolol-O-Boc-N-acetate] = > 50 mg/mL

Okay, now this compound:
CC(=O)O[C@@H](CNC(C)(C)C)COc1nsnc1N1CCOCC1.O=C(O)/C=C\C(=O)O has a reported solubility of > 50 mg/mL

* * *

# experiment: Determination of drug solubility in aqueous and organic solvent;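 also: solid drug suspended at 50 mg/mL nominal in each solvent, vortexed and sonicated, then dissolved concentration in filtered supernatant quantified by HPLC against a calibration curve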
# Format: physicochemical
# runConditions: organic solvent or mixture, thermodynamic from solid; Table 3B; DMSO; read-out: Solubility DMSO
measuredMetric: solubility

* CC(C)(C)NC[C@@H](COc1nsnc1N1CCOCC1)OC(=O)CCC(=O)O[C@@H](CNC(C)(C)C)COc1nsnc1N1CCOCC1.O=C(O)/C=C\C(=O)O [Compound 76-4, Timolol-succinic acid-Timolol-maleate] | > 100 mg/mL
* COc1cccc(CN(CCOC(=O)[C@H](C)OC(=O)[C@H](C)OC(=O)[C@H](C)OC(=O)[C@H](C)OC(C)=O)C(=O)Nc2ccc(-c3cnn(C(=O)[C@H](C)OC(=O)[C@H](C)OC(=O)[C@H](C)OC(=O)[C@H](C)OC(C)=O)c3)cc2)c1 [Compound 113-1, SR5834-bis-acetyl PLA(n=4)] | 50 mg/mL
* CCCCC/C=C\C/C=C\CCCCCCCC(=O)O[C@@H](CNC(C)(C)C)COc1nsnc1N1CCOCC1.Cl [Compound 71-1, Timolol-O-Linoleic Acid-HCl] | > 50 mg/mL
* CCOC(=O)CCC(=O)O[C@H](COc1nsnc1N1CCOCC1)CN(C(=O)[C@H](C)OC(=O)[C@H](C)OC(C)=O)C(C)(C)C [Compound 117-6] | > 50 mg/mL
* CCCCCCCCCCCCCCCCCC(=O)O[C@@H](C)C(=O)O[C@H](COc1nsnc1N1CCOCC1)CN(C(C)=O)C(C)(C)C [Compound 65-1] | > 100 mg/mL
* CCCCCCCCCCCCCCCCCC(=O)O[C@@H](C)C(=O)O[C@@H](C)C(=O)O[C@@H](C)C(=O)O[C@@H](C)C(=O)O[C@H](COc1nsnc1N1CCOCC1)CN(C(C)=O)C(C)(C)C [Compound 67-1, N-Acyl-Timolol-PLA (n = 4) Stearate] | 70 mg/mL
* CCN(Cc1cccc(OC)c1)C(=O)Nc1ccc(-c2cn[nH]c2)cc1OCCN1CCCC1 [RKI-1y, reference compound] | > 100 mg/mL
* CC(C)(C)NC[C@@H](COc1nsnc1N1CCOCC1)OC(=O)CCCC(=O)O[C@@H](CNC(C)(C)C)COc1nsnc1N1CCOCC1.O=C(O)/C=C\C(=O)O [Compound 77-1, Timolol-glutaric acid-Timolol-maleate] | > 100 mg/mL
* CCOC(=O)CCC(=O)O[C@H](COc1nsnc1N1CCOCC1)CN(C(=O)[C@H](C)OC(=O)[C@H](C)OC(=O)[C@H](C)OC(=O)[C@H](C)OC(C)=O)C(C)(C)C [Compound 120-1] | > 50 mg/mL
* CC(C)(C)NC[C@@H](COc1nsnc1N1CCOCC1)OC(=O)/C=C/C(=O)O[C@@H](CNC(C)(C)C)COc1nsnc1N1CCOCC1.O=C(O)/C=C\C(=O)O.O=C(O)/C=C\C(=O)O [Compound 78-1, Timolol-fumurate-Timolol-maleate] | > 100 mg/mL

COc1cccc(CN(CCO)C(=O)Nc2ccc(-c3cn[nH]c3)cc2)c1 [SR5834, reference compound] has a reported solubility of > 100 mg/mL

CC(C)(C)NC[C@@H](COc1nsnc1N1CCOCC1)OC(=O)CCCCCCCCC(=O)O[C@@H](CNC(C)(C)C)COc1nsnc1N1CCOCC1.O=C(O)/C=C\C(=O)O [Compound 75-1, Timolol-Sebacic Acid-Timolol Maleate] has a reported solubility of > 100 mg/mL

CC(=O)N(C[C@@H](COc1nsnc1N1CCOCC1)OC(=O)[C@H](C)OC(=O)[C@H](C)O)C(C)(C)C [Compound 69-1] has a reported solubility of > 100 mg/mL

CC/C=C\C/C=C\C/C=C\C/C=C\C/C=C\C/C=C\CCC(=O)O[C@@H](CNC(C)(C)C)COc1nsnc1N1CCOCC1.O=C(O)/C=C\C(=O)O [Compound 53-3] has a reported solubility of > 100 mg/mL

COc1cccc(CN(CCO)C(=O)Nc2ccc(-c3cn[nH]c3)cc2OCCN2CCCC2)c1 [RKI-H-1y, reference compound] has a reported solubility of > 100 mg/mL

CC(=O)O[C@@H](C)C(=O)O[C@@H](C)C(=O)O[C@H](COc1nsnc1N1CCOCC1)CN(C(=O)[C@H](C)OC(=O)[C@H](C)OC(C)=O)C(C)(C)C [Compound 118-1, Timolol-bis-N-acetyl-PLA(n=2)] has a reported solubility of > 50 mg/mL
